Catalogue of protein stability index readings, one per entry.
assay info: protein stability index of a GFP-peptide fusion (GPS, HEK-293T) (PSI 1-6); higher = more stable;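 also: 24-mer peptide tiles fused after GFP, lentivirally expressed, FACS-sorted into six equal bins by GFP/DsRed ratio, decoded by Illumina sequencing, PSI is the read-weighted mean bin number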
experimental conditions: treatment: DMSO; c terminus: a fixed tail appended
parameter: protein stability index

# record sequence, meas value
measured = [
    ("QQQHIECVVCGDKSSGKHYGQFTC [NR2F2]", 3.06),
    ("HIFGDLDSYIPLHEDLLTRIGEAT [NET1]", 2.96),
    ("KLAVFMWLMTYVGAVFNGITLLIL [RTN3]", 2.97),
    ("LEASNYQMMPYMQPVMQSDRTAIR [KLHL13]", 3.9),
    ("RNLHSHYHEAPMTRKHYQVTGYGI [POMT2]", 2.35),
    ("DNDHKEAVGKMGFVVTMLKLIQKK [ZER1]", 2.21),
    ("GQDTFCQGKADGLYPNPRERSSFY [CHIT1]", 3.71),
]

====

assay info: protein stability index of a GFP-peptide fusion (GPS, HEK-293T) (PSI 1-6); higher = more stable
experimental conditions: treatment: MLN4924 1 uM, 8 h; c terminus: a fixed tail appended
Outcome label depends on protein stability index relative to 3: at/above gives rule met, below gives rule not met.

# record sequence, label class
rows = [
    ("ERGSMKTHFNTAQGFRTVLELVIN [OAS1]", "rule not met"),
    ("VPAGEEEGELGEYRQKLLMFLEIS [VPS39]", "rule met"),
    ("AATLLLALLSCCLTVVSFYQVAAL [TNFSF13B]", "rule met"),
    ("GLSHSHDLSMDGLFGTIAYLPPER [RIPK4]", "rule met"),
    ("ENARSGAEAEPEDQDEGEWGLDQE [ZBED1]", "rule met"),
    ("EDSYRKQVEVDAQQCMLEILDTAG [RAP1B]", "rule met"),
    ("VTVTDVDIVFSKIKGKSCRTITFE [TPPP]", "rule not met"),
    ("NMHLNLRPFDCPVCNKKFKMKHHL [ZBTB22]", "rule not met"),
    ("APPQGSCGDELPWTLQRRLTRLRT [PLEKHN1]", "rule met"),
    ("SLKLIKRLYVDKSLNLSTEFISST [SERPINB5]", "rule not met"),
    ("AGLAPPSLFARAMQVLVTAISPGR [ANKRD9]", "rule not met"),
    ("ESFYESTSPECASPQFEGPLSPPP [NEUROD6]", "rule met"),
    ("ENQLVRKQDVLGPSTTPPAHSSSN [SASS6]", "rule met"),
    ("SRESSKPRAVLKPRRVCVGGKRRR [PPP2R2C]", "rule met"),
    ("SNNKKNDEMQEVPNRVLAPEQSLK [SPANXN3]", "rule met"),
    ("GRIIAVFKPKNEEPYGHLNPKWTK [PI4K2A]", "rule not met"),
    ("QGIGSKIIKKVAEVALDKGCSQFR [SAT2]", "rule not met"),
]

====

assay info: protein stability index of a GFP-peptide fusion (GPS, HEK-293T) (PSI 1-6); higher = more stable
experimental conditions: treatment: DMSO; c terminus: a fixed tail appended
Categorize each record by its protein stability index using class 0 (below 3), class 1 (3 to below 4), class 2 (4 or more)

# record sequence, label class
measured = [
    ("DVDITLSSEAFHNYMNAAMVHINR [RTN3]", "class 0"),
    ("PKQSGSFRYLQGMLEAGEGGDWPG [PDLIM4]", "class 1"),
    ("GDRLQFNQLSQAELDELASKAPVL [EFHC1]", "class 2"),
    ("RNLEDIHMSLEKDIAAMTNSLFID [TEKT4]", "class 1"),
    ("DMELHRMSRMQSKEYPVVPRSTVR [TBX5]", "class 2"),
    ("ALLEGEKALWEDKTSLWEEENALW [CCDC70]", "class 1"),
    ("MGWFNNEVGSMKIQSGAWVCYQYP [CRYBA1]", "class 0"),
    ("RLEDKVKTLKAENAGLSSTAGLLR [JUNB]", "class 1"),
    ("AKRCTVIGGSGFLGQHMVEQLLAR [NSDHL]", "class 0"),
    ("GLWSRISHLVLPVQPVSSIEEQGC [TOR1AIP2]", "class 0"),
    ("RLKCRSFKWYLENVYPEMRVYNNT [GALNT9]", "class 0"),
    ("APPSTRTSHSLPESSVPSTVGCSS [PLEKHN1]", "class 2"),
    ("AFAEMLRFGDRMFYKDWWNSTSYS [SOAT1]", "class 0"),
    ("AEKETELSLQKEQLQLKIIEIEDE [TRIM29]", "class 2"),
    ("ERGTPGLPGPKGDDGKLGATGPMG [SCARA5]", "class 2"),
    ("KGLNARMMRGLSYSLTTSSTHKSS [RAB40A]", "class 1"),
    ("RERIQILKTSEVTQHLPRECLPEN [PTPN9]", "class 2"),
    ("EDSYRKQVEVDAQQCMLEILDTAG [RAP1B]", "class 2"),
    ("PVQGSSEDNLSLVCLPRSEDDDCD [DRICH1]", "class 2"),
    ("LYQKQPKIGYHLLYYLRASKAAAG [INTS3]", "class 0"),
    ("LGWGPTALRDVPFSALYWFNYELV [SLC25A39]", "class 0"),
]
